Tested on: cancer cells
Assay: MTT cytotoxic assay of esterification products (Cytotoxicity activity)
Type: cell-based, human
Details: esterification products of E4A—Tig—N with senecioyl chloride
Assay Endpoint: Cytotoxicity activity

[
  {
    "Compound": "CC=C(C)C(=O)OCC1(C)C(O)CCC2(C)C1CCC1(C)C2CC=C2C3CC(C)(C)C(O)C(OC(=O)C=C(C)C)C3(CO)C(O)CC21C (stereo not drawn)",
    "Assay Endpoint": "Cytotoxicity activity",
    "Experimental Value": "moderate"
  },
  {
    "Compound": "CC=C(C)C(=O)OCC1(C)C(O)CCC2(C)C1CCC1(C)C2CC=C2C3CC(C)(C)C(OC(=O)C=C(C)C)C(O)C3(CO)C(O)CC21C (stereo not drawn)",
    "Assay Endpoint": "Cytotoxicity activity",
    "Experimental Value": "moderate"
  },
  {
    "Compound": "CC=C(C)C(=O)OCC1(C)C(OC(=O)C=C(C)C)CCC2(C)C1CCC1(C)C2CC=C2C3CC(C)(C)C(O)C(O)C3(COC(=O)C=C(C)C)C(O)CC21C (stereo not drawn)",
    "Assay Endpoint": "Cytotoxicity activity",
    "Experimental Value": "moderate"
  }
]

---

System: cancer cells
Test: MTT cytotoxic assay of esterification products (Cytotoxicity activity)
Type: cell-based, human
Conditions: MTT cytotoxic assay, isolated esterification products of E4A

[
  {
    "Compound": "CC(C)=CC(=O)OCC1(C)C(O)CCC2(C)C1CCC1(C)C2CC=C2C3CC(C)(C)C(O)C(O)C3(CO)C(OC(=O)C=C(C)C)CC21C (stereo not drawn)",
    "Cytotoxicity activity": "moderate"
  },
  {
    "Compound": "CC=C(C)C(=O)OCC1(C)C(O)CCC2(C)C1CCC1(C)C2CC=C2C3CC(C)(C)C(O)C(OC(=O)C(C)=CC)C3(CO)C(O)CC21C (stereo not drawn)",
    "Cytotoxicity activity": "moderate"
  },
  {
    "Compound": "CC=C(C)C(=O)OCC1(C)C(OC(=O)C(C)=CC)CCC2(C)C1CCC1(C)C2CC=C2C3CC(C)(C)C(OC(=O)C(C)=CC)C(O)C3(COC(=O)C(C)=CC)C(O)CC21C (stereo not drawn)",
    "Cytotoxicity activity": "weak"
  }
]

---

Tested on: cancer cells
Assay: MTT cytotoxic assay of esterification products (Cytotoxicity activity)
Assay type: cell-based, human
Conditions: E4A esterified with Crotonoyl chloride (Cro = Crotonoyl), compounds isolated with HPLC
Assay Endpoint: Cytotoxicity activity

[
  {
    "Compound": "CC=CC(=O)OCC1(C)C(OC(=O)C=CC)CCC2(C)C1CCC1(C)C2CC=C2C3CC(C)(C)C(O)C(O)C3(CO)C(O)CC21C (centres unmarked)",
    "Assay Endpoint": "Cytotoxicity activity",
    "Experimental Value": "moderate"
  },
  {
    "Compound": "CC=CC(=O)OCC1(C)C(O)CCC2(C)C1CCC1(C)C2CC=C2C3CC(C)(C)C(OC(=O)C=CC)C(O)C3(COC(=O)C=CC)C(OC(=O)C=CC)CC21C (centres unmarked)",
    "Assay Endpoint": "Cytotoxicity activity",
    "Experimental Value": "weak"
  },
  {
    "Compound": "CC=CC(=O)OCC1(C)C(O)CCC2(C)C1CCC1(C)C2CC=C2C3CC(C)(C)C(OC(=O)C=CC)C(OC(=O)C=CC)C3(CO)C(O)CC21C (centres unmarked)",
    "Assay Endpoint": "Cytotoxicity activity",
    "Experimental Value": "moderate"
  },
  {
    "Compound": "CC=CC(=O)OCC1(C)C(O)CCC2(C)C1CCC1(C)C2CC=C2C3CC(C)(C)C(OC(=O)C=CC)C(OC(=O)C=CC)C3(COC(=O)C=CC)C(OC(=O)C=CC)CC21C (centres unmarked)",
    "Assay Endpoint": "Cytotoxicity activity",
    "Experimental Value": "weak"
  },
  {
    "Compound": "CC=CC(=O)OCC1(C)C(OC(=O)C=CC)CCC2(C)C1CCC1(C)C2CC=C2C3CC(C)(C)C(O)C(O)C3(COC(=O)C=CC)C(O)CC21C (centres unmarked)",
    "Assay Endpoint": "Cytotoxicity activity",
    "Experimental Value": "moderate"
  },
  {
    "Compound": "CC=CC(=O)OC1C(OC(=O)C=CC)C2(CO)C(OC(=O)C=CC)CC3(C)C(=CCC4C5(C)CCC(O)C(C)(CO)C5CCC43C)C2CC1(C)C (centres unmarked)",
    "Assay Endpoint": "Cytotoxicity activity",
    "Experimental Value": "moderate"
  },
  {
    "Compound": "CC=CC(=O)OCC1(C)C(O)CCC2(C)C1CCC1(C)C2CC=C2C3CC(C)(C)C(O)C(OC(=O)C=CC)C3(COC(=O)C=CC)C(OC(=O)C=CC)CC21C (centres unmarked)",
    "Assay Endpoint": "Cytotoxicity activity",
    "Experimental Value": "weak"
  },
  {
    "Compound": "CC=CC(=O)OCC1(C)C(OC(=O)C=CC)CCC2(C)C1CCC1(C)C2CC=C2C3CC(C)(C)C(OC(=O)C=CC)C(OC(=O)C=CC)C3(COC(=O)C=CC)C(OC(=O)C=CC)CC21C (centres unmarked)",
    "Assay Endpoint": "Cytotoxicity activity",
    "Experimental Value": "none"
  },
  {
    "Compound": "CC=CC(=O)OCC1(C)C(O)CCC2(C)C1CCC1(C)C2CC=C2C3CC(C)(C)C(O)C(OC(=O)C=CC)C3(CO)C(O)CC21C (centres unmarked)",
    "Assay Endpoint": "Cytotoxicity activity",
    "Experimental Value": "moderate"
  },
  {
    "Compound": "CC=CC(=O)OCC1(C)C(O)CCC2(C)C1CCC1(C)C2CC=C2C3CC(C)(C)C(O)C(O)C3(CO)C(OC(=O)C=CC)CC21C (centres unmarked)",
    "Assay Endpoint": "Cytotoxicity activity",
    "Experimental Value": "moderate"
  },
  {
    "Compound": "CC=CC(=O)OCC12C(OC(=O)C=CC)CC3(C)C(=CCC4C5(C)CCC(O)C(C)(CO)C5CCC43C)C1CC(C)(C)C(O)C2O (centres unmarked)",
    "Assay Endpoint": "Cytotoxicity activity",
    "Experimental Value": "moderate"
  }
]

---

Test system: cancer cells
Assay: MTT cytotoxic assay of esterification products (Cytotoxicity activity)
Assay type: cell-based, human
Settings: esterification products of core compound E4A with Butyryl chloride (But = Butyryl)
Assay Endpoint: Cytotoxicity activity

[
  {
    "Compound": "CC1(C)CC2C3=CCC4C5(C)CCC(OC(=O)c6ccccc6)C(C)(COC(=O)c6ccccc6)C5CCC4(C)C3(C)CC(O)C2(COC(=O)c2ccccc2)C(OC(=O)c2ccccc2)C1OC(=O)c1ccccc1 (centres unmarked) [Compound K15]",
    "Target Or System": "cancer cells",
    "Experimental Value": "weak"
  },
  {
    "Compound": "CC1(C)CC2C3=CCC4C5(C)CCC(O)C(C)(CO)C5CCC4(C)C3(C)CC(O)C2(COC(=O)c2ccccc2)C(O)C1OC(=O)c1ccccc1 (centres unmarked) [Compound K25]",
    "Target Or System": "cancer cells",
    "Experimental Value": "moderate"
  },
  {
    "Compound": "CC1(C)CC2C3=CCC4C5(C)CCC(OC(=O)c6ccccc6)C(C)(COC(=O)c6ccccc6)C5CCC4(C)C3(C)CC(O)C2(COC(=O)c2ccccc2)C(OC(=O)c2ccccc2)C1O (centres unmarked) [Compound K14]",
    "Target Or System": "cancer cells",
    "Experimental Value": "weak"
  },
  {
    "Compound": "CC1(C)CC2C3=CCC4C5(C)CCC(O)C(C)(CO)C5CCC4(C)C3(C)CC(O)C2(COC(=O)c2ccccc2)C(OC(=O)c2ccccc2)C1OC(=O)c1ccccc1 (centres unmarked) [Compound K20]",
    "Target Or System": "cancer cells",
    "Experimental Value": "moderate"
  },
  {
    "Compound": "CC1(C)CC2C3=CCC4C5(C)CCC(O)C(C)(COC(=O)c6ccccc6)C5CCC4(C)C3(C)CC(O)C2(CO)C(O)C1OC(=O)c1ccccc1 (centres unmarked) [Compound K29]",
    "Target Or System": "cancer cells",
    "Experimental Value": "moderate"
  },
  {
    "Compound": "CC1(C)CC2C3=CCC4C5(C)CCC(O)C(C)(CO)C5CCC4(C)C3(C)CC(O)C2(CO)C(OC(=O)c2ccccc2)C1OC(=O)c1ccccc1 (centres unmarked) [Compound K24]",
    "Target Or System": "cancer cells",
    "Experimental Value": "moderate"
  },
  {
    "Compound": "CC1(C)CC2C3=CCC4C5(C)CCC(O)C(C)(CO)C5CCC4(C)C3(C)CC(OC(=O)c3ccccc3)C2(CO)C(OC(=O)c2ccccc2)C1OC(=O)c1ccccc1 (centres unmarked) [Compound K22]",
    "Target Or System": "cancer cells",
    "Experimental Value": "moderate"
  },
  {
    "Compound": "CC1(C)CC2C3=CCC4C5(C)CCC(O)C(C)(CO)C5CCC4(C)C3(C)CC(O)C2(COC(=O)c2ccccc2)C(OC(=O)c2ccccc2)C1O (centres unmarked) [Compound K26]",
    "Target Or System": "cancer cells",
    "Experimental Value": "moderate"
  },
  {
    "Compound": "CC1(C)CC2C3=CCC4C5(C)CCC(O)C(C)(COC(=O)c6ccccc6)C5CCC4(C)C3(C)CC(O)C2(CO)C(OC(=O)c2ccccc2)C1O (centres unmarked) [Compound K30]",
    "Target Or System": "cancer cells",
    "Experimental Value": "moderate"
  },
  {
    "Compound": "CC1(C)CC2C3=CCC4C5(C)CCC(OC(=O)c6ccccc6)C(C)(COC(=O)c6ccccc6)C5CCC4(C)C3(C)CC(O)C2(CO)C(O)C1O (centres unmarked) [Compound K31]",
    "Target Or System": "cancer cells",
    "Experimental Value": "moderate"
  },
  {
    "Compound": "CC1(C)CC2C3=CCC4C5(C)CCC(O)C(C)(COC(=O)c6ccccc6)C5CCC4(C)C3(C)CC(OC(=O)c3ccccc3)C2(CO)C(O)C1O (centres unmarked) [Compound K32]",
    "Target Or System": "cancer cells",
    "Experimental Value": "moderate"
  }
]
